- System: RAW264.7 murine macrophages
- Assay type: cell-based
- MEASUREMENT CONTEXT: 2 h
No end group written: not given here.
Entries annotated with measured LC50 macrophages RAW 264.7

Worked set:
>>> df
                              substance                          tgt           measured_quantity  test_value
0  KKAVAVAVAVAVAVAVAVKK-NH2 [K2(AV)8K2]  RAW264.7 murine macrophages  LC50 macrophages RAW 264.7       90 µM
1      KKALALALALALAKK-NH2 [K2(AL)5AK2]  RAW264.7 murine macrophages  LC50 macrophages RAW 264.7     >100 µM
2    KALALALALALALALALALK-NH2 [K(AL)9K]  RAW264.7 murine macrophages  LC50 macrophages RAW 264.7     >100 µM
3            KKALALALKK-NH2 [K2(AL)3K2]  RAW264.7 murine macrophages  LC50 macrophages RAW 264.7     >100 µM
4  KKALALALALALALALALKK-NH2 [K2(AL)8K2]  RAW264.7 murine macrophages  LC50 macrophages RAW 264.7     >100 µM

--- query ---
Prompt: So what LC50 macrophages RAW 264.7 did ALALALALALALALALALKK-NH2 [(AL)9K2] get with RAW264.7 murine macrophages?
Response: >100 µM
